assay system: CYP2C19 (Homo sapiens)
Construct: was investigated in HLMs; tissue iPhase Pharmaceutical Services (Beijing, China) Lot # 7MMC011; host or cells: pooled human liver microsomes
protocol: Inhibition of CYP activities by GA in HLMs (mephenytoin)
Format: biochemical
condition details: HLMs, 30 min pre-incubation with NADPH, mephenytoin 25 µM
pIC50: −log10 of the molar value.

entry smiles | pIC50
CC1(C)[C@@H](O)CC[C@]2(C)[C@H]3C(=O)C=C4[C@@H]5C[C@@](C)(C(=O)O)CC[C@]5(C)CC[C@@]4(C)[C@]3(C)CC[C@@H]12 | 3.76

* * *

assay system: CYP1A2 (Homo sapiens, UniProt P05177)
Construct: tissue iPhase Pharmaceutical Services (Beijing, China) Lot # 7MMC011; host or cells: pooled human liver microsomes
Sequence (P05177 whole entry): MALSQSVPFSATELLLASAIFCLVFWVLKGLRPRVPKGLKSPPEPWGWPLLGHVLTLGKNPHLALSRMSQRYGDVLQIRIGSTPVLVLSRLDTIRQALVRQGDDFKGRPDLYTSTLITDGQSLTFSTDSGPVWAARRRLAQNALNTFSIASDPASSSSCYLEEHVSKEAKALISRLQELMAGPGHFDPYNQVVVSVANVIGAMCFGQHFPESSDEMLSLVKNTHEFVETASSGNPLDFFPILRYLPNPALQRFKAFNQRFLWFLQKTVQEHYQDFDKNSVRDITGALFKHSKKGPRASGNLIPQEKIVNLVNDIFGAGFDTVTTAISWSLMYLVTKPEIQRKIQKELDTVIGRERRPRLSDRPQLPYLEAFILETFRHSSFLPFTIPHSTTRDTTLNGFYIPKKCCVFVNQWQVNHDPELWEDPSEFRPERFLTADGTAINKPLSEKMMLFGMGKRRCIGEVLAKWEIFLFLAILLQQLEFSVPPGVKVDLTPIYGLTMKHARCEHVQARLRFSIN
protocol: Inhibition of CYP activities by GA in HLMs (phenacetin)
Assay type: biochemical
condition details: human, human liver microsomes, probe phenacetin (25 µM); CYP1A2-30min; GA 6.2500; vs control; read-out: Relative activity (%)

entry smiles | assay system | activity at 30 min, 6.25 µM (%)
CC1(C)[C@@H](O)CC[C@]2(C)[C@H]3C(=O)C=C4[C@@H]5C[C@@](C)(C(=O)O)CC[C@]5(C)CC[C@@]4(C)[C@]3(C)CC[C@@H]12 | CYP1A2 (Homo sapiens, UniProt P05177) | 89.2

* * *

protocol: Toxicokinetics of BAK in rat plasma after a single oral dose
Format: in vivo, Sprague–Dawley rats
condition details: Sprague-Dawley, rat, plasma, po, 200 mg/kg, 1.000 h after single oral dose
attribute measured: concentration at 1 h (µg/mL)

entry smiles | attribute measured | unit abbrev | val
C=C[C@@](C)(/C=C/c1ccc(O)cc1)CCC=C(C)C | concentration at 1 h | µg/mL | 0.396

* * *

protocol: Toxicokinetics of BAK in rat plasma after a single oral dose
Format: in vivo, Sprague–Dawley rats
condition details: Sprague-Dawley, rat, plasma, po, 200 mg/kg, 24.00 h after single oral dose; read-out: BAK concentration in rat plasma, single rats 1-5

compound | concentration at 24 h
C=C[C@@](C)(/C=C/c1ccc(O)cc1)CCC=C(C)C [BAK, Bakuchiol] | 76.9 ng/mL

* * *

assay system: CYP2C9 (Homo sapiens, UniProt P11712)
Construct: tissue iPhase Pharmaceutical Services (Beijing, China) Lot # 7MMC011; host or cells: pooled human liver microsomes
Sequence (P11712 whole entry): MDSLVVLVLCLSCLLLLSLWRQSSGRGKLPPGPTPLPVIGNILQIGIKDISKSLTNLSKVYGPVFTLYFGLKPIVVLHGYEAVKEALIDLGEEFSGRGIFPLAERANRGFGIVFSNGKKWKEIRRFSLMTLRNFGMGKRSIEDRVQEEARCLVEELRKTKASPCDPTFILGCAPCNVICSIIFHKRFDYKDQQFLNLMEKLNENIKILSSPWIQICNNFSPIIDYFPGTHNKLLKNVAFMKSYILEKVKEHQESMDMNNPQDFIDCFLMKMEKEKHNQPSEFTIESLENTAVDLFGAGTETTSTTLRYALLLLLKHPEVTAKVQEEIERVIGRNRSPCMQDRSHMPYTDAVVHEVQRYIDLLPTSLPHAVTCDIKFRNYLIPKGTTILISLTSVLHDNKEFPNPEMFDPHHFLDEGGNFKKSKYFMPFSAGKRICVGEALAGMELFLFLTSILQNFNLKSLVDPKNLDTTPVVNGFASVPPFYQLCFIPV
protocol: Inhibition of CYP activities by GA in HLMs (tolbutamide)
Type: biochemical
condition details: human, human liver microsomes, probe tolbutamide 25 µM; CYP2C9-30min; GA 156.2500; vs control; read-out: Relative activity (%)
attribute measured: activity at 30 min, 156.25 µM

compound | attribute measured | val
CC1(C)[C@@H](O)CC[C@]2(C)[C@H]3C(=O)C=C4[C@@H]5C[C@@](C)(C(=O)O)CC[C@]5(C)CC[C@@]4(C)[C@]3(C)CC[C@@H]12 [GA, Glycyrrhetinic acid] | activity at 30 min, 156.25 µM | 46.2%

* * *

assay system: CYP2D6 (Homo sapiens, UniProt P10635)
Sequence (P10635 whole entry): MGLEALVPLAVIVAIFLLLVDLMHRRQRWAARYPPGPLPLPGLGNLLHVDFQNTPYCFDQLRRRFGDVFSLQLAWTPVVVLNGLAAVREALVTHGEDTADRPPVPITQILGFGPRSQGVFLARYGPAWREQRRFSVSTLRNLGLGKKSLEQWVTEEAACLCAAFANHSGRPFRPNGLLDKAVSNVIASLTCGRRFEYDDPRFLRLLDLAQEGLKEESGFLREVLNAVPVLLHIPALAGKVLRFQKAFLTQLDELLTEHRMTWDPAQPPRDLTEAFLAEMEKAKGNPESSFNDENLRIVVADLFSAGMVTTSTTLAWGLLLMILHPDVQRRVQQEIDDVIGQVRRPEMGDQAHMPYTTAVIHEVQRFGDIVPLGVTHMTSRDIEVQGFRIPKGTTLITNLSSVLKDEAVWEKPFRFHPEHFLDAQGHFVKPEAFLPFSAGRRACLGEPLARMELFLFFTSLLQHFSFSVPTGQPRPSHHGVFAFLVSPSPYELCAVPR
pIC50: −log10 of the molar value.
attribute measured: pIC50

compound | val
CC1(C)[C@@H](O)CC[C@]2(C)[C@H]3C(=O)C=C4[C@@H]5C[C@@](C)(C(=O)O)CC[C@]5(C)CC[C@@]4(C)[C@]3(C)CC[C@@H]12 [GA, Glycyrrhetinic acid] | 3.58

* * *

assay system: CYP2C19 (Homo sapiens, UniProt P33261)
Construct: was investigated in HLMs; tissue iPhase Pharmaceutical Services (Beijing, China) Lot # 7MMC011; host or cells: pooled human liver microsomes
Sequence (P33261 whole entry): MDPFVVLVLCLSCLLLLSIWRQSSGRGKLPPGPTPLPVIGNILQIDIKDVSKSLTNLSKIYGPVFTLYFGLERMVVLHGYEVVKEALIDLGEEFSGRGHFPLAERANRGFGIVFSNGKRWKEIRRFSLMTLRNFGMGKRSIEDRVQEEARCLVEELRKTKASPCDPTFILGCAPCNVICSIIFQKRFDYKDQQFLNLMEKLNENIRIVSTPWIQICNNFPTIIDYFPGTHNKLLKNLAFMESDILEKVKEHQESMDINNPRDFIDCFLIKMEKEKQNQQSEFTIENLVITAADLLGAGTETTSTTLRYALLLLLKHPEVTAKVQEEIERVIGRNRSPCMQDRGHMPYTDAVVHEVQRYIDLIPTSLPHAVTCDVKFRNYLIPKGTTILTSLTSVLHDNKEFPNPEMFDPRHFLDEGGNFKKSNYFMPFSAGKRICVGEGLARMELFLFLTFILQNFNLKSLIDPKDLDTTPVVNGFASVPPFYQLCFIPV
protocol: Inhibition of CYP activities by GA in HLMs (mephenytoin)
Assay type: biochemical
condition details: human, human liver microsomes, probe mephenytoin (25 µM); CYP2C19-30min; GA 156.2500; vs control; read-out: Relative activity (%)
attribute measured: activity at 30 min, 156.25 µM (%)

entry smiles | val
CC1(C)[C@@H](O)CC[C@]2(C)[C@H]3C(=O)C=C4[C@@H]5C[C@@](C)(C(=O)O)CC[C@]5(C)CC[C@@]4(C)[C@]3(C)CC[C@@H]12 | 57.9

* * *

protocol: HK-2 cell viability, MTT assay, with or without co-cultured HLMs
Format: cell-based, human
condition details: human, HK-2 cells, without HLMs, BAK 75 µM, without HLMs, 4 h, mean; read-out: HK-2 Cell viability (%)

entry smiles | unit abbrev | viability at 4 h, 75 µM
C=C[C@@](C)(/C=C/c1ccc(O)cc1)CCC=C(C)C | % | 55

* * *

protocol: Toxicokinetics of BAK in rat plasma after a single oral dose
Format: in vivo, Sprague–Dawley rats
condition details: Sprague-Dawley, rat, plasma, po, 200 mg/kg, 0.500 h after single oral dose; read-out: BAK concentration in rat plasma, mean
Description: ABT, a broad-spectrum nonspecific CYP inhibitor, was selected as a positive control inhibitor of CYP enzymes. Aristolochic acid A (AA I) was selected as the nephrotoxicity positive control in the study. The plasma samples were separated by centrifugation at 4000 rpm for 15 min. […] Subsequently, 10 µL of internal standard solution (tanshinone II A, 10 µg/mL) and 0.3 mL of acetonitrile were added to 0.1 mL of plasma or homogenates, and centrifuged at 13,300 rpm for 15 min after 2 min of vortexing. […]
attribute measured: concentration at 0.5 h

compound | val
C=C[C@@](C)(/C=C/c1ccc(O)cc1)CCC=C(C)C [BAK, Bakuchiol] | 0.273 µg/mL

* * *

assay system: CYP1A2 (Homo sapiens)
Construct: tissue iPhase Pharmaceutical Services (Beijing, China) Lot # 7MMC011; host or cells: pooled human liver microsomes
protocol: Inhibition of CYP activities by GA in HLMs (phenacetin)
Assay type: biochemical
condition details: human, human liver microsomes (HLMs), probe phenacetin 25 µM; CYP1A2-30min; GA 156.2500; vs control; read-out: Relative activity (%)
attribute measured: activity at 30 min, 156.25 µM (%)

entry smiles | assay system | attribute measured | val
CC1(C)[C@@H](O)CC[C@]2(C)[C@H]3C(=O)C=C4[C@@H]5C[C@@](C)(C(=O)O)CC[C@]5(C)CC[C@@]4(C)[C@]3(C)CC[C@@H]12 | CYP1A2 (Homo sapiens) | activity at 30 min, 156.25 µM | 18.2

* * *

protocol: HK-2 cell viability, MTT assay, with or without co-cultured HLMs
Type: cell-based, human
condition details: human, HK-2 cells co-cultured with HLMs (0.16 g/L), BAK 30 µM, with HLMs 0.16 g/L, 4 h, mean; read-out: HK-2 Cell viability (%)
Method: HK-2 cells obtained from Peking Union Medical College were maintained in D/F12 medium containing 10% fetal bovine serum, 2 mM glutamine and 1 × 10^5 U/L penicillin and streptomycin at 37 °C in a 5% CO2 atmosphere. […] The samples containing HLMs were prepared in an ice bath, and three replicates were tested for each dose. […] Subsequently, 150 µL of 4% isopropanol was added to cells for 15 min at 37 °C, and the absorbance at 570 nm was then read by a microplate reader (Multiskan MK3, Thermo, USA). […]

compound | viability at 4 h, 30 µM
C=C[C@@](C)(/C=C/c1ccc(O)cc1)CCC=C(C)C [BAK, Bakuchiol] | 104%

* * *

assay system: CYP2C9 (Homo sapiens)
Construct: tissue iPhase Pharmaceutical Services (Beijing, China) Lot # 7MMC011; host or cells: pooled human liver microsomes
protocol: Inhibition of CYP activities by GA in HLMs (tolbutamide)
Assay type: biochemical
condition details: human, human liver microsomes, probe tolbutamide 25 µM; CYP2C9-30min; GA 312.5000; vs control; read-out: Relative activity (%)
attribute measured: activity at 30 min, 312.5 µM

entry smiles | assay system | val
CC1(C)[C@@H](O)CC[C@]2(C)[C@H]3C(=O)C=C4[C@@H]5C[C@@](C)(C(=O)O)CC[C@]5(C)CC[C@@]4(C)[C@]3(C)CC[C@@H]12 | CYP2C9 (Homo sapiens) | 18.1%

* * *

protocol: BAK exposure in rat liver and kidney 24 h after dosing
Format: in vivo, Sprague–Dawley rats
condition details: Sprague-Dawley, liver, po, 200 mg/kg, 24 h after single oral dose, read-out: Exposure of BAK, Liver, mean
attribute measured: concentration at 24 h (ng/g)

molecule | unit abbrev | val
C=C[C@@](C)(/C=C/c1ccc(O)cc1)CCC=C(C)C [BAK, Bakuchiol] | ng/g | 548

* * *

protocol: HK-2 cell viability, MTT assay, with or without co-cultured HLMs
Type: cell-based, human
condition details: human, HK-2 cells, without HLMs, BAK 60 µM, without HLMs, 4 h, mean; read-out: HK-2 Cell viability (%)

molecule | viability at 4 h, 60 µM
C=C[C@@](C)(/C=C/c1ccc(O)cc1)CCC=C(C)C [BAK, Bakuchiol] | 77.5%

* * *

assay system: CYP2C9 (Homo sapiens, UniProt P11712)
Construct: tissue iPhase Pharmaceutical Services (Beijing, China) Lot # 7MMC011; host or cells: pooled human liver microsomes
protocol: Inhibition of CYP activities by GA in HLMs (tolbutamide)
Format: biochemical
condition details: human, human liver microsomes, probe tolbutamide 25 µM; CYP2C9-30min; GA 31.2500; vs control; read-out: Relative activity (%)

compound | assay system | activity at 30 min, 31.25 µM, %
CC1(C)[C@@H](O)CC[C@]2(C)[C@H]3C(=O)C=C4[C@@H]5C[C@@](C)(C(=O)O)CC[C@]5(C)CC[C@@]4(C)[C@]3(C)CC[C@@H]12 [GA, Glycyrrhetinic acid] | CYP2C9 (Homo sapiens, UniProt P11712) | 56.1
